Origin of measurements: paper PMC3042617

tested on: LB1751-MEL cells; assay: Cytotoxicity (LDH release) of peptide-stimulated human PBMCs against LB1751-MEL; format: cell-based; settings: PBMCs of healthy HLA-A*0201 donors, E/T 50/1, 25/1, 12.5/1, 4 h
Value kind: Lysis of LB1751-MEL target cells by peptide-stimulated PBMCs

KVLEHVVRV [Peptide P1] | could significantly lyse
ALLEEEEGV [Peptide P2] | could not lyse
FLWGPRALA [Peptide P3] | could significantly lyse
ALPTTISFT [Peptide P4] | could not lyse

----------
Molecular target: HLA-A*0201 molecule (Homo sapiens, UniProt P04439, D140Y/D185E/D98H/E176V/E277Q/G131W/G231S/I119V/I121R/I166T/I218V/L300P/L318F/N151K/N90K/P208A/P217A/Q86G/Q94H/R138H/R169H/T345S)
Assay: T2-cell-peptide binding test (affinity of peptide for HLA-A*0201)
Settings: various peptide concentrations, 3 μg/mL human β2m, serum-free RPMI 1640, 37°C, 16 h, flow cytometry, three replicates, repeated three times
Method: The affinity of peptides for HLA-A*0201 was measured as described previously. Briefly, T2 cells were incubated with various concentrations of each peptide and 3 μg/mL human β2m in serum-free RPMI 1640 medium at 37°C for 16 h. […] The expression of HLA-A*0201 on T2 cells was determined with FACS Calibur flow cytometer (Becton Dickinson, USA). […] Figure 1 Binding affinity of peptides for HLA-A*0201 molecule. […] The expression of HLA-A*0201 on T2 cells was determined with FACS Calibur flow cytometer. […]
Value kind: Binding affinity for HLA-A*0201 molecule (increase of HLA-A*0201 expression on T2 cells)

ALPTTISFT [Peptide P4] | lowest affinity
KVLEHVVRV [Peptide P1] | lowest affinity
